Test system: test plant species
Assay info: Post-emergent herbicidal activity test (greenhouse, foliar spray, visual growth reduction)
Format: in vivo
Condition description: post-emergence, 336 h, ECHCG: barnyardgrass (Echinochloa crus-galli), 140 g ai/ha, 14 days after application, read-out: Visual Growth Reduction (%) 14 Days After Application, ECHCG
Source text: Post-emergent Test: Seeds or nutlets of the desired test plant species were planted in Sun Gro Metro-Mix® 360 planting mixture, which typically has a pH of 6.0 to 6.8 and an organic matter content of about 30 percent, in plastic pots with a surface area of 64 square centimeters. In some aspects, to ensure good germination and healthy plants, a fungicide treatment and/or other chemical or physical treatment was applied. […]
Known pest or weed control at 140 g/ha of a selection of compounds

Reference set, count: 6
COC(=O)c1nc(-c2ccc(C(F)F)c(F)c2OC)c(F)cc1Cl [F253] | 60 to 74%
COC(=O)c1nc(-c2cc(Cl)c(C(F)(F)F)cc2C)c(F)cc1Cl [F370] | 0 to 29%
C=Cc1ccc(-c2ccc(Cl)c(C(=O)OC)n2)c(Cl)c1 [F23] | 0 to 29%
COC(=O)c1nc(-c2ccc(Cl)c(OC)c2F)ncc1Cl [F115] | 0 to 29%
COC(=O)c1nc(-c2ccc(I)cc2F)c(F)cc1Cl [F328] | 0 to 29%
COC(=O)c1nc(-c2cc3c(cc2Cl)OC(F)(F)O3)ncc1Cl [F232] | 75 to 84%

The recorded pest or weed control at 140 g/ha for entry COC(=O)c1nc(-c2ccc(C(F)(F)F)cc2Cl)cc(Cl)c1Cl [F108] equals 0 to 29%

The recorded pest or weed control at 140 g/ha for entry O=C(O)c1nc(-c2cc3c(cc2Cl)OCO3)c(Cl)cc1Cl [F183] equals 0 to 29%

The recorded pest or weed control at 140 g/ha for entry COC(=O)c1nc(-c2cc(Br)c(C(F)(F)F)cc2Cl)c(F)cc1Cl [F152] equals 0 to 29%

Origin of the recorded values: patent US20230017045A1
